System: Echinochloa crus-galli
Assay: Pre-emergence herbicidal effect
Type: in vivo
Conditions: Dosage 80 g/ha, scored visually after 3 weeks
Listing of entries alongside the reported ECHCG pre-emergence efficacy (herbicidal activity).
measured_attribute: ECHCG pre-emergence efficacy (herbicidal activity) (%)

- compound: "Cc1cc2c(s1)CCCC2Nc1ncc(C(F)(F)F)c(N)n1 (racemic) [compound 61]"
  endpoint_result: 90
- compound: "CS(=O)(=O)c1cnc(NC2CCc3cc(Cl)sc32)nc1N (racemic)"
  endpoint_result: 90
- compound: "Cc1sc2c(c1C)C(Nc1ncc(C(F)(F)F)c(N)n1)CCC2 (stereo not drawn)"
  endpoint_result: 90

---

Test system: Setaria viridis
Assay: Post-emergence herbicidal effect
Format: in vivo
Conditions: 320 g/ha, assessed visually after about 3 weeks vs untreated controls

- compound: "Cc1cc2c(s1)CCCC2Nc1nc(N)c(S(C)(=O)=O)c(C(F)F)n1 (racemic)"
  tgt: "Setaria viridis"
  post-emergence efficacy SETVI: "80%"
- compound: "CC(=O)c1c(N)nc(NC2CCCc3sc(C)cc32)nc1C(F)(F)F (racemic)"
  tgt: "Setaria viridis"
  post-emergence efficacy SETVI: "80%"
- compound: "Cc1cc2c(s1)CCCC2Nc1ncc(C#N)c(N)n1 (racemic) [compound 52]"
  tgt: "Setaria viridis"
  post-emergence efficacy SETVI: "80%"
- compound: "CN=C(C)c1cnc(NC2CCCc3sc(C)cc32)nc1N (stereo not shown)"
  tgt: "Setaria viridis"
  post-emergence efficacy SETVI: "80%"

---

Test system: Abutilon theophrasti
Assay: Post-emergence herbicidal effect
Type: in vivo
Conditions: 80 g/ha, assessed visually after about 3 weeks vs untreated controls

- compound: "CS(=O)(=O)c1cnc(N[C@@H]2CCCc3sccc32)nc1N"
  unit: "%"
  post-emergence efficacy ABUTH: 100
- compound: "Cc1cc2c(s1)CCC[C@H]2Nc1ncc(I)c(N)n1"
  unit: "%"
  post-emergence efficacy ABUTH: 80
- compound: "Cc1cc2c(s1)C(Nc1ncc(C(F)(F)F)c(N)n1)CCC2 (racemic)"
  unit: "%"
  post-emergence efficacy ABUTH: 90
- compound: "CC(=NO)c1cnc(NC2CCCc3sc(C)cc32)nc1N (stereo not shown) [compound 286]"
  unit: "%"
  post-emergence efficacy ABUTH: 90

---

Listing of entries alongside the reported AVEFA pre-emergence efficacy (herbicidal activity).
Tested on: Avena fatua
Test: Pre-emergence herbicidal effect
Assay type: in vivo
Conditions: Dosage 320 g/ha, scored visually after 3 weeks
measured_attribute: AVEFA pre-emergence efficacy (herbicidal activity) (%)

- compound: "Cc1cc2c(s1)CCCC2Nc1ncc(C#N)c(N)n1 (centres unmarked) [compound 282]"
  endpoint_result: 90
- compound: "Cc1cc2c(s1)CCCC2Nc1nc(N)c([S+](C)[O-])c(C(C)F)n1 (racemic)"
  endpoint_result: 90
- compound: "C/C(=N\\O)c1cnc(NC2CCCc3sc(Cl)cc32)nc1C (racemic)"
  endpoint_result: 90
- compound: "Cc1cc2c(s1)CCCC2Nc1nc(N)c(Br)c(C(F)F)n1 (racemic) [compound 314]"
  endpoint_result: 60
- compound: "Cc1cc2c(s1)CCCC2Nc1ncc(C(F)(F)F)c(N)n1 (racemic) [compound 11]"
  endpoint_result: 90
- compound: "Cc1sc2c(c1C)C(Nc1ncc(C(F)(F)F)c(N)n1)CCC2 (centres unmarked)"
  endpoint_result: 100
- compound: "Cc1cc2c(s1)CCC[C@H]2Nc1ncc(C(F)(F)F)c(N)n1"
  endpoint_result: 100
- compound: "Cc1cc2c(s1)CCC[C@H]2Nc1ncc(I)c(N)n1"
  endpoint_result: 60
- compound: "Cc1cc2c(s1)CCCC2Nc1ncc(C#N)c(N)n1 (racemic) [compound 52]"
  endpoint_result: 90
- compound: "CC(=O)c1cnc(NC2CCCc3sc(C)cc32)nc1N (centres unmarked)"
  endpoint_result: 80
- compound: "Cc1cc2c(s1)CCCC2Nc1ncc(C(F)(F)F)c(N)n1 (racemic) [compound 61]"
  endpoint_result: 80
- compound: "Cc1cc2c(s1)C(Nc1ncc(C(F)(F)F)c(N)n1)CCC2 (racemic)"
  endpoint_result: 100
- compound: "CS(=O)(=O)c1cnc(NC2CCCc3sccc32)nc1N (racemic)"
  endpoint_result: 90
- compound: "CS(=O)(=O)c1cnc(N[C@@H]2CCCc3sccc32)nc1N"
  endpoint_result: 90
